Taken from paper PMC9516332.

# testedSystem: panel of 255 wild-type kinases (Homo sapiens)
# protocolSummary: Kinase panel profiling at 1 µmol/L (MSA or IMAP), percentage inhibition
# Assay type: biochemical
# setupConditions: kinase LOK; 1 µmol/L single concentration; read-out: %-inhibition at 1 µmol/L, LOK
Listed next: entries and their corresponding inhibition at 1 µM.
Include the unit right after the number.

>  <compound>
Cn1cnc2c(F)c(Nc3ccc(Br)cc3Cl)c(C(=O)NOCCO)cc21 [selumetinib]

>  <testedSystem>
panel of 255 wild-type kinases (Homo sapiens)

>  <inhibition at 1 µM>
5%

$$$$
>  <compound>
CN1CCN(c2ccc(C(=O)Nc3n[nH]c4ccc(Cc5cc(F)cc(F)c5)cc34)c(NC3CCOCC3)c2)CC1 [entrectinib]

>  <testedSystem>
panel of 255 wild-type kinases (Homo sapiens)

>  <inhibition at 1 µM>
28%

$$$$
>  <compound>
C[C@H](Nc1ncnc2nc[nH]c12)c1cc2cccc(Cl)c2c(=O)n1-c1ccccc1 [duvelisib]

>  <testedSystem>
panel of 255 wild-type kinases (Homo sapiens)

>  <inhibition at 1 µM>
0.582%

$$$$
>  <compound>
COC(=O)N[C@@H](C)CNc1nccc(-c2cn(C(C)C)nc2-c2cc(Cl)cc(NS(C)(=O)=O)c2F)n1 [encorafenib]

>  <testedSystem>
panel of 255 wild-type kinases (Homo sapiens)

>  <inhibition at 1 µM>
1.24%

$$$$
>  <compound>
COc1ccc(CN2C3CC2CN(c2ccc(-c4cc(OCC(C)(C)O)cn5ncc(C#N)c45)cn2)C3)cn1 [selpercatinib]

>  <testedSystem>
panel of 255 wild-type kinases (Homo sapiens)

>  <inhibition at 1 µM>
40%

$$$$

Bench note: what inhibition at 1 µM did Cc1nc(NC(=O)N2CCC[C@H]2C(N)=O)sc1-c1ccnc(C(C)(C)C(F)(F)F)c1 [alpelisib] show?
-7%

And what about the compound CCc1nc(C(N)=O)c(Nc2ccc(N3CCC(N4CCN(C)CC4)CC3)c(OC)c2)nc1NC1CCOCC1 [gilteritinib] ?
100%

---

# Tested on: 134 cancer cell lines
# protocolSummary: Cell viability assay (ATPlite, 72 hours), IC50 on cancer cell line panel
# setupConditions: Homo sapiens, COLO 205, read-out: IC50 in cell proliferation assay
resultType: IC50 (µM)
I only need the number, in µM, no unit after it.

>  <cpdSmiles>
Cn1cc(-c2cc3c(N4CCN(c5ncc([C@@](C)(N)c6ccc(F)cc6)cn5)CC4)ncnn3c2)cn1

>  <unitName>
µM

>  <resultValue>
10.7

$$$$
>  <cpdSmiles>
C[C@@H](Oc1cc(-c2cnn(C3CCNCC3)c2)cnc1N)c1c(Cl)ccc(F)c1Cl

>  <unitName>
µM

>  <resultValue>
1.89

$$$$

Now look at this one.
Name the recorded IC50 for CCN1C(=O)N(c2c(F)c(OC)cc(OC)c2F)Cc2cnc3[nH]c(CN4CCOCC4)cc3c21 .
2.98

---

# testedSystem: panel of 255 wild-type kinases (Homo sapiens, UniProt O15264)
# Sequence (O15264 whole entry): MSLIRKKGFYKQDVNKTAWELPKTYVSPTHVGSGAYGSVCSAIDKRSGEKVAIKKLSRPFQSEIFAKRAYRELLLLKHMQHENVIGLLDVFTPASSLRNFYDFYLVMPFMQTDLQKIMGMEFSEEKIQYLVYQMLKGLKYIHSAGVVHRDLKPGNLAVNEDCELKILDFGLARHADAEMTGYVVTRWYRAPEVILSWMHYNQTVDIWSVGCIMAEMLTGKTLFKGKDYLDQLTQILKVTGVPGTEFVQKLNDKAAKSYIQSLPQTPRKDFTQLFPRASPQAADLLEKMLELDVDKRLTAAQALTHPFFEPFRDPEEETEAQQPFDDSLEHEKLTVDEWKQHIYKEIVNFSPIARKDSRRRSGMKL
# protocolSummary: Kinase panel profiling at 1 µmol/L (MSA or IMAP), percentage inhibition
# Assay type: biochemical
# setupConditions: p38δ; 1 µmol/L single concentration; read-out: %-inhibition, p38δ
# reported inhibition at 1 µM; entries follow
Please answer using the number first and the unit second.

>  <cpdSmiles>
CO[C@]1(C(=O)N[C@@H](C)c2ccc(-n3cc(F)cn3)nc2)CC[C@H](c2nc(C)cc(Nc3cc(C)[nH]n3)n2)CC1

>  <resultType>
inhibition at 1 µM

>  <resultValue>
0.0555%

$$$$
>  <cpdSmiles>
CCn1c(=O)c(-c2cc(NC(=O)Nc3ccccc3)c(F)cc2Br)cc2cnc(NC)cc21

>  <resultType>
inhibition at 1 µM

>  <resultValue>
-0.186%

$$$$
>  <cpdSmiles>
CN1CCN(c2ccc(C(=O)Nc3n[nH]c4ccc(Cc5cc(F)cc(F)c5)cc34)c(NC3CCOCC3)c2)CC1

>  <resultType>
inhibition at 1 µM

>  <resultValue>
-3%

$$$$
>  <cpdSmiles>
FC(F)(F)c1ccc(CNc2ccc(Cc3c[nH]c4ncc(Cl)cc34)cn2)cn1

>  <resultType>
inhibition at 1 µM

>  <resultValue>
1.15%

$$$$
>  <cpdSmiles>
O=C(Nc1cnn2ccc(N3CCC[C@@H]3c3cc(F)ccc3F)nc12)N1CC[C@H](O)C1

>  <resultType>
inhibition at 1 µM

>  <resultValue>
-7%

$$$$
>  <cpdSmiles>
COc1ccc(CN2C3CC2CN(c2ccc(-c4cc(OCC(C)(C)O)cn5ncc(C#N)c45)cn2)C3)cn1

>  <resultType>
inhibition at 1 µM

>  <resultValue>
-6.33%

$$$$

Query: inhibition at 1 µM; subject: COC(=O)N[C@@H](C)CNc1nccc(-c2cn(C(C)C)nc2-c2cc(Cl)cc(NS(C)(=O)=O)c2F)n1
5%
